meta.source: ChEMBL document CHEMBL5352440

# maps each entry to its log10(Activity)
# Tested on: Plasmodium falciparum
# test details: Inhibition of plasmodium falciparum apicoplast DNA polymerase exonuclease activity using blunt-ended double stranded oligonucleotide with 2-aminopurine at position 1 on 3' end as substrate assessed as exonuclease specific activity at 100 uM (reference value: 2.2 +/- 0.09%)
experimental readout: log10(Activity) (log10 of the value in U)

1) CC(C)(C)c1ccc(S(=O)(=O)Nc2c3c(nn2-c2cccc(C(F)(F)F)c2)CSC3)cc1 | -1.22
2) CC(C)(C)c1ccc(NC(=O)Nc2c3c(nn2-c2cccc(C(F)(F)F)c2)CSC3)cc1 | 0.15
3) O=C(Nc1c2c(nn1-c1cccc(Cl)c1)COC2)c1ccc(-c2ccccc2)cc1 | 0.08
4) CC(=O)Nc1c2c(nn1-c1cccc(Cl)c1)COC2 | 0.34
5) CC(C)(C)c1ccc(NC(=O)Nc2c3c(nn2-c2ccncc2)COC3)cc1 | 0.11
6) O=C(Nc1c2c(nn1-c1cccc(Cl)c1)COC2)c1ccc2ccccc2c1 | 0.26
7) Cc1cccc(-n2nc3c(c2NC(=O)Nc2ccc(C(C)(C)C)cc2)CSC3)c1 | 0.08
8) CC(C)(C)c1ccc(S(=O)(=O)Nc2c3c(nn2-c2ccc(Cl)cc2)CSC3)cc1 | -1.22
